target-desc: Recombinant human HDAC1 (Homo sapiens)
protocol-text: In vitro HDAC enzymatic assay, HDAC1
Assay type: biochemical
condition-context: HDAC1 IC50, as stated in text
measurement-label: IC50 (nM)
Write the number in nM without appending the unit.

Prompt line: Please state recorded IC50 (tested on Recombinant human HDAC1 (Homo sapiens)) of Cl.Cn1cc(CN2CCN(c3ncc(C(=O)NO)cn3)CC2)c2ccccc21 [KH29]
Response line: 9

---

target-desc: Recombinant human HDAC1 (Homo sapiens, UniProt Q13547)
Sequence (Q13547 whole entry): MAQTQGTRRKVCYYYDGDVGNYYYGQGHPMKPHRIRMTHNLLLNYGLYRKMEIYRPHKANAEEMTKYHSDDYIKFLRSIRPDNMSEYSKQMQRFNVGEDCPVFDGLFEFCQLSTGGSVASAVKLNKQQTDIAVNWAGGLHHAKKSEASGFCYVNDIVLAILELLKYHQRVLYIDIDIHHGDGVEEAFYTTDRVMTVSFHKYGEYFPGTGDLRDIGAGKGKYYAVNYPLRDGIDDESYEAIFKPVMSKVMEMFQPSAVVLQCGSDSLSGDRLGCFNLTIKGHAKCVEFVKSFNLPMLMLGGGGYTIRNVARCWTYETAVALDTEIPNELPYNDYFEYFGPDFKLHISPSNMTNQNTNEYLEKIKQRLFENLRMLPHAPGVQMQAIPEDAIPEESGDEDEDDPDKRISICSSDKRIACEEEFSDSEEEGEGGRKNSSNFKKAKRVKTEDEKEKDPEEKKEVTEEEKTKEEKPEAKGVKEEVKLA
protocol-text: In vitro HDAC enzymatic assay, HDAC1
Assay type: biochemical
condition-context: HDAC1 IC50, Ac-RHKK(Acetyl)-AMC substrate, 37 °C
measurement-label: pIC50
pIC50 (log units): -log10 of the concentration in mol/L.

Prompt line: Quick check: pIC50 on Recombinant human HDAC1 (Homo sapiens, UniProt Q13547), item `Cl.Cn1cc(CN2CCN(c3ncc(C(=O)NO)cn3)CC2)c2ccccc21` ?
Response line: 8.03

---

target-desc: Recombinant human HDAC2 (Homo sapiens)
Sequence (Q92769 whole entry): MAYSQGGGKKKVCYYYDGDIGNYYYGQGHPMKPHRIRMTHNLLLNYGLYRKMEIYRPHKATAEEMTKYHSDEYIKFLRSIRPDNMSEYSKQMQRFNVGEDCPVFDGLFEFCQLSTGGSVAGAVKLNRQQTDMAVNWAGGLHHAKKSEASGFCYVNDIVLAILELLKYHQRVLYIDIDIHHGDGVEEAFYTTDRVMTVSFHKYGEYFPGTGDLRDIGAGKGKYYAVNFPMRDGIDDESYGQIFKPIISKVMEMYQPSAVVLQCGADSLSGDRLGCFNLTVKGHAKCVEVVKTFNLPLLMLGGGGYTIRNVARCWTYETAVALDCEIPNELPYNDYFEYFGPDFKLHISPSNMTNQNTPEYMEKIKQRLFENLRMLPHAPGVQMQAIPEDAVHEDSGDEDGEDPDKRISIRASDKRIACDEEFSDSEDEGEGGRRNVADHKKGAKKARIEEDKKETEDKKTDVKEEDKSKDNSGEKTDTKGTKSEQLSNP
protocol-text: In vitro HDAC enzymatic assay, HDAC2
Assay type: biochemical
measurement-label: pIC50
When answering, recall that pIC50 equals minus log10 of the concentration in mol/L, and write that number alone.

Prompt line: Provide value of pIC50 for this record tested with Recombinant human HDAC2 (Homo sapiens): `Cl.Cn1cc(CN2CCN(c3ncc(C(=O)NO)cn3)CC2)c2ccccc21`
Response line: 7.59

---

target-desc: Recombinant human HDAC2 (Homo sapiens)
protocol-text: In vitro HDAC enzymatic assay, HDAC2
Type: biochemical
condition-context: read-out: HDAC2 IC50; Ac-RHKK(Acetyl)-AMC substrate, 37 °C
measurement-label: IC50 (nM)
# unit: nM | format: bare number

Prompt line: Observed IC50 on Recombinant human HDAC2 (Homo sapiens) for `COc1ccc(/C=C/CN2CCN(c3ncc(C(=O)NO)cn3)CC2)cc1.Cl` , please.
Response line: 22

---

target-desc: Recombinant human HDAC6 (Homo sapiens, UniProt Q9UBN7)
Sequence (Q9UBN7 whole entry): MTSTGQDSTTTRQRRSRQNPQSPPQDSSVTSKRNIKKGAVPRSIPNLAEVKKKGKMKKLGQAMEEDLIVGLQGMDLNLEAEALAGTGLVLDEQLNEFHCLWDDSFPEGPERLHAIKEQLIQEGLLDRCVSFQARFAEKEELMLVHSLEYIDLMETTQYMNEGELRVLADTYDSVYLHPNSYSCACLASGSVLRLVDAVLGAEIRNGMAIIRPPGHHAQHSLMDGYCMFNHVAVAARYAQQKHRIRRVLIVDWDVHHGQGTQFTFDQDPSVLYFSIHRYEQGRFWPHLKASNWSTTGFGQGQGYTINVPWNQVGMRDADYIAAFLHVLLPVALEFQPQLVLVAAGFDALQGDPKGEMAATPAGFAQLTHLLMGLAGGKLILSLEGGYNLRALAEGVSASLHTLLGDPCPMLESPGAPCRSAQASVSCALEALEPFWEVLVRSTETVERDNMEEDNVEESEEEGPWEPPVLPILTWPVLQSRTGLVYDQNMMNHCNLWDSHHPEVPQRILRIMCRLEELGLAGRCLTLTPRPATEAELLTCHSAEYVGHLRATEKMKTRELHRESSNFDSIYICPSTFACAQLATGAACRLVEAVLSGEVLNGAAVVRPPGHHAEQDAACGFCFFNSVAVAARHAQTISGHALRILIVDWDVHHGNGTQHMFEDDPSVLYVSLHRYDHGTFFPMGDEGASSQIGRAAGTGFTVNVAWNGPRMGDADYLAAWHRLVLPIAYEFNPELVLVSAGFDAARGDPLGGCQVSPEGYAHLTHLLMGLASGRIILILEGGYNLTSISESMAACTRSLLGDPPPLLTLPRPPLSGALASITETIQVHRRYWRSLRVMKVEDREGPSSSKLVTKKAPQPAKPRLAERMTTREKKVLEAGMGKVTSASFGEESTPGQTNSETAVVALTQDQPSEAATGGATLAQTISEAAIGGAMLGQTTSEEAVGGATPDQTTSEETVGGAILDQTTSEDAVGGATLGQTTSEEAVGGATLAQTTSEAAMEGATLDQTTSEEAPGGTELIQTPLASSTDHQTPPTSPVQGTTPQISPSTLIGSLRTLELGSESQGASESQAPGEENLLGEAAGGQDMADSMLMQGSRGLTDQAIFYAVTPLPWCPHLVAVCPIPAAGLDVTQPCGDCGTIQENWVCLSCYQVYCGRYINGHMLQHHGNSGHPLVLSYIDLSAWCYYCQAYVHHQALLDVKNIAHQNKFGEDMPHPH
protocol-text: In vitro HDAC enzymatic assay, HDAC6
Format: biochemical
measurement-label: pIC50
Entry type: numeric. Quantity: pIC50, the -log10 of concentration in molar units.

Prompt line: If you can, please state the reported pIC50 value of Cl.Cn1cc(CN2CCN(c3ncc(C(=O)NO)cn3)CC2)c2ccccc21 [KH29] .
Response line: 7.60

---

target-desc: Recombinant human HDAC6 (Homo sapiens, UniProt Q9UBN7)
protocol-text: In vitro HDAC enzymatic assay, HDAC6
Type: biochemical
condition-context: read-out: HDAC6 IC50; Abz-SRGGK(thio-TFA)FFRR-NH2 substrate
measurement-label: IC50
Field: value (include unit after the number)

Prompt line: # lookup: IC50 of COc1ccc(/C=C/CN2CCN(c3ncc(C(=O)NO)cn3)CC2)cc1.Cl [KH9]
Response line: 140 nM

---

target-desc: Recombinant human HDAC3/NCOR1 (Homo sapiens, UniProt O15379)
Sequence (O15379 whole entry): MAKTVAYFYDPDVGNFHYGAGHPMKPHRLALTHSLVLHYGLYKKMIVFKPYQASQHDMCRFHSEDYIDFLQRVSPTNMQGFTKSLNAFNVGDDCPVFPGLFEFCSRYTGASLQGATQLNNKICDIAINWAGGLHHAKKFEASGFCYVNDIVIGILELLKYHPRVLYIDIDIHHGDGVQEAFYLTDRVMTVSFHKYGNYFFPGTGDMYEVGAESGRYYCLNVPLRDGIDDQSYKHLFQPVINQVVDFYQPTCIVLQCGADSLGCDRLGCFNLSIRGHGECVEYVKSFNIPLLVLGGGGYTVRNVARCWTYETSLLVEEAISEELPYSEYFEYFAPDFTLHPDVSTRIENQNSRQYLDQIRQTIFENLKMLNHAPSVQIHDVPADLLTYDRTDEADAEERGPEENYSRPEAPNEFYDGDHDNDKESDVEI
Sequence (O75376 395-489 partner limits assumed): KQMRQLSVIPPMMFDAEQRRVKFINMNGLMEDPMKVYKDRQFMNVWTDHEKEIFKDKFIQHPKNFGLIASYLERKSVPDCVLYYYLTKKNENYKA
protocol-text: In vitro HDAC enzymatic assay, HDAC3
condition-context: read-out: HDAC3 IC50; Ac-RHKK(Acetyl)-AMC substrate, 37 °C
measurement-label: IC50 (nM)
Please state the figure in nM; there is no need to write the unit.

Prompt line: Fill in the blank: the reported IC50 of `COc1ccc(/C=C/CN2CCN(c3ncc(C(=O)NO)cn3)CC2)cc1.Cl` is ____.
Response line: 19
